Molecular target: Angiotensin-converting enzyme (Homo sapiens, UniProt P12821)
Sequence (P12821 whole entry): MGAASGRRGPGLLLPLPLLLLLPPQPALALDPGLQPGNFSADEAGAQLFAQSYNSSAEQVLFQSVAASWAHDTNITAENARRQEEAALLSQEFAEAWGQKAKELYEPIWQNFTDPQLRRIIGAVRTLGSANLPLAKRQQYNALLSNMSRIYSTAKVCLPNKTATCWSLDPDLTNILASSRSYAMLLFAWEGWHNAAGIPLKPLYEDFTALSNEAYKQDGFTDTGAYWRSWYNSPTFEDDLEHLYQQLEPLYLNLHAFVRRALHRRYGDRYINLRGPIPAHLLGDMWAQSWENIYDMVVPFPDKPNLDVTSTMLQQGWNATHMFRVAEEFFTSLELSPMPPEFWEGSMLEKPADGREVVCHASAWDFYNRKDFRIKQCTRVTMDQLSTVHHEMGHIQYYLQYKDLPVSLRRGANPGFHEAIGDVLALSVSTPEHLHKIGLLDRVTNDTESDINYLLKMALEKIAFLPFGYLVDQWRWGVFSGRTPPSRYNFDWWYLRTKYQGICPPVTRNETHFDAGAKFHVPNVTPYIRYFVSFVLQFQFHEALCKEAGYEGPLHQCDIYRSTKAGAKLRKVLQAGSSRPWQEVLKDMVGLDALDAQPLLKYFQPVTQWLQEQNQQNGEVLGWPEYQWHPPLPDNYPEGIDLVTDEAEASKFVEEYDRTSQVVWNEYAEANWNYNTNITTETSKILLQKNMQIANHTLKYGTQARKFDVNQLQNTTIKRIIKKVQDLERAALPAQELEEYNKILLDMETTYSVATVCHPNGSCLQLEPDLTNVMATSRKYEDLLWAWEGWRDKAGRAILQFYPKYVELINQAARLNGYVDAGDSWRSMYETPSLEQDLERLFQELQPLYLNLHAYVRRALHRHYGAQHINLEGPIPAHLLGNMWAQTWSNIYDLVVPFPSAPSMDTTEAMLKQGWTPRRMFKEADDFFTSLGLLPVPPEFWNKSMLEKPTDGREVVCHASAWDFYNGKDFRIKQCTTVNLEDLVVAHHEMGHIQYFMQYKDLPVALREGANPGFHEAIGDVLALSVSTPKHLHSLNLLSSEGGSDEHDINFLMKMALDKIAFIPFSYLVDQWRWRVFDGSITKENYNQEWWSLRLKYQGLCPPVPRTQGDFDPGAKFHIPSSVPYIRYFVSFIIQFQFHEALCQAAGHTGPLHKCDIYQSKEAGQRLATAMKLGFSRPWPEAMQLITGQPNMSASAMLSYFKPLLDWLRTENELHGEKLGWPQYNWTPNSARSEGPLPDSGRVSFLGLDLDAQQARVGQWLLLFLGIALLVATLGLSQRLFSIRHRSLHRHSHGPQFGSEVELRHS
Assay: Biological activity was measured against Angiotensin I converting enzyme
Details: read-out: Log 1/IC50 (converted)
Peptide text beside a SMILES is read from it.
One threshold, 7 mM, splits the recorded IC50 values: lower ones are yes (1), equal or higher ones are no (0).

Before answering, review these 4 worked examples.
[[record]]
compound = "NCC(=O)N[C@@H](CC(=O)O)C(=O)O (H-Gly-Asp-OH)"
group = "no (0)"

[[record]]
compound = "CC[C@H](C)[C@H](N)C(=O)N1CCCC1C(=O)O (single isomer, unassigned)"
group = "yes (1)"

[[record]]
compound = "C[C@H](NC(=O)[C@@H](N)CCC(=O)O)C(=O)O (H-Glu-Ala-OH)"
group = "no (0)"

[[record]]
compound = "NC(=O)CC[C@H](N)C(=O)NCC(=O)O (H-Gln-Gly-OH)"
group = "no (0)"


Is IC50 strictly under 7 mM for the entry `CSCC[C@H](NC(=O)CN)C(=O)O` ? yes (1)

---

Biological target: Angiotensin-converting enzyme (Homo sapiens, UniProt P12821)
Assay: Biological activity was measured against Angiotensin I converting enzyme
Settings: read-out: Log 1/IC50 (converted)
Peptide text beside a SMILES is read from it.
Recorded measurements of IC50, one per entry
Kindly answer with a numeric value in µM, unit omitted.

The following molecules have reported results that may help.
[[record]]
molecule = "C[C@H](NC(=O)[C@@H](N)CC(=O)O)C(=O)O (H-Asp-Ala-OH)"
tested_target = "Angiotensin-converting enzyme (Homo sapiens, UniProt P12821)"
value_type = "IC50"
value_units = "µM"
numeric_readout = 3800

[[record]]
molecule = "N[C@@H](CCC(=O)O)C(=O)NCC(=O)O (H-Glu-Gly-OH)"
tested_target = "Angiotensin-converting enzyme (Homo sapiens, UniProt P12821)"
value_type = "IC50"
value_units = "µM"
numeric_readout = 10000

[[record]]
molecule = "CC[C@H](C)[C@H](N)C(=O)N[C@@H](Cc1ccccc1)C(=O)O (H-Ile-Phe-OH)"
tested_target = "Angiotensin-converting enzyme (Homo sapiens, UniProt P12821)"
value_type = "IC50"
value_units = "µM"
numeric_readout = 933

[[record]]
molecule = "C[C@H](N)C(=O)N[C@@H](Cc1ccccc1)C(=O)O"
tested_target = "Angiotensin-converting enzyme (Homo sapiens, UniProt P12821)"
value_type = "IC50"
value_units = "µM"
numeric_readout = 191

[[record]]
molecule = "NCCCC[C@H](NC(=O)CN)C(=O)O (H-Gly-Lys-OH)"
tested_target = "Angiotensin-converting enzyme (Homo sapiens, UniProt P12821)"
value_type = "IC50"
value_units = "µM"
numeric_readout = 5370

[[record]]
molecule = "C[C@H](NC(=O)CN)C(=O)O (H-Gly-Ala-OH)"
tested_target = "Angiotensin-converting enzyme (Homo sapiens, UniProt P12821)"
value_type = "IC50"
value_units = "µM"
numeric_readout = 2000


Would you kindly share the measured IC50 for `N=C(N)NCCC[C@H](N)C(=O)N[C@@H](Cc1ccccc1)C(=O)O` ? 229

Would you kindly share the measured IC50 for NCC(=O)N[C@@H](CCC(=O)O)C(=O)O (H-Gly-Glu-OH) ? 5370

Would you kindly share the measured IC50 for NCC(=O)N[C@@H](CCC(N)=O)C(=O)O (H-Gly-Gln-OH) ? 7080

Would you kindly share the measured IC50 for CC(C)[C@H](NC(=O)CN)C(=O)O (H-Gly-Val-OH) ? 4570

Would you kindly share the measured IC50 for NCC(=O)N[C@@H](Cc1c[nH]c2ccccc12)C(=O)O (H-Gly-Trp-OH) ? 30.2

Would you kindly share the measured IC50 for `C[C@H](O)[C@H](N)C(=O)NCC(=O)O` ? 10000

Would you kindly share the measured IC50 for `CC(C)C[C@H](NC(=O)CN)C(=O)O` ? 2510

Would you kindly share the measured IC50 for CC(C)C[C@H](N)C(=O)N[C@@H](C)C(=O)O [LEU-ALA] (H-Leu-Ala-OH) ? 309

Would you kindly share the measured IC50 for NCC(=O)N[C@@H](Cc1ccccc1)C(=O)O (H-Gly-Phe-OH) ? 631

Attribution: ChEMBL document CHEMBL1128468
